Exercise: state measured Zones of inhibition for each of the compounds provided.
test system: Listeria monocytogenes; assay: Disc diffusion, zones of inhibition in culture medium; format: cell-based; conditions: I = Listeria monocytogenes, average of four repetitions
Numbers only, in mm.

Compound: CCOC(=O)[C@@]1(O)CC(=O)O[C@@H]1C(=O)O
Zones of inhibition / mm: 6
//
Compound: COC(=O)[C@@]1(O)CC(=O)O[C@@H]1C(=O)O
Zones of inhibition / mm: 8
//
Compound: CCOC(=O)[C@H]1OC(=O)C[C@]1(O)C(=O)OCC
Zones of inhibition / mm: 6

List reported Zones of inhibition for each of these compounds:
1. CCOC(=O)C[C@](O)(C(=O)OCC)[C@@H](O)C(=O)OCC [Compound 6, tri-ethyl ester of hydroxycitric acid]
2. COC(=O)[C@H]1OC(=O)C[C@]1(O)C(=O)OC
3. O=C1C[C@](O)(C(=O)O)[C@@H](C(=O)O)O1

-- reply
1: 5; 2: 8; 3: 10
